# Tested on: 616215-338-R-J1-PDC spheroids with HUVEC/MSC, viability;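 note: spheroids exposed to agents for seven days before the viability read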
# test_description: Anticancer human tumor 616215-338-R-J1-PDC patient-derived colon adenocarcinoma cell line growth inhibition [PI3K]
# measurement_parameters: second compound 0.316 µM; first compound 0.3 µM; stronger effect = lower value
Listing of recorded viability, T/C by entry.
assay_readout: viability, T/C (%)

compound="Cn1cnc2c(F)c(Nc3ccc(Br)cc3Cl)c(C(=O)NOCCO)cc21 + Cc1nc(NC(=O)N2CCCC2C(N)=O)sc1-c1ccnc(C(C)(C)C(F)(F)F)c1" data_value=73.1
compound="Cn1cnc2c(F)c(Nc3ccc(Br)cc3Cl)c(C(=O)NOCCO)cc21 + COc1c(OCCCN2CCOCC2)ccc2c3n(c(=NC(=O)c4cnc(N)nc4)nc12)CCN3" data_value=24.9
compound="Cn1cnc2c(F)c(Nc3ccc(Br)cc3Cl)c(C(=O)NOCCO)cc21 + CC(Nc1ncnc2nc[nH]c12)c1cc2cccc(Cl)c2c(=O)n1-c1ccccc1" data_value=70.2
compound="Cn1cnc2c(F)c(Nc3ccc(Br)cc3Cl)c(C(=O)NOCCO)cc21 + CC(Nc1ccc2c(c1)OCCn1cc(N3C(=O)OCC3C(F)F)nc1-2)C(N)=O" data_value=57.4
